Cited source: BigSolDB 2.1

condition parameters: in n-propanol, 313.15 K
measured metric: solubility (mole fraction)

Quick one: solubility (mole fraction) for O=[N+]([O-])/N=C1\NCCN1Cc1ccc(Cl)nc1 ?
0.0013

* * *

condition parameters: in methyl acetate, 303.15 K
measured metric: solubility (mole fraction)
# print the numeric value only

Quick one: solubility (mole fraction) for O=[N+]([O-])/N=C1\NCCN1Cc1ccc(Cl)nc1 ?
0.0048

* * *

condition parameters: in methanol, 333.15 K
measured metric: solubility (mole fraction)

Quick one: solubility (mole fraction) for O=[N+]([O-])/N=C1\NCCN1Cc1ccc(Cl)nc1 ?
0.0067

* * *

condition parameters: in n-propanol, 333.15 K
measured metric: solubility (mole fraction)
# print the numeric value only

Quick one: solubility (mole fraction) for O=[N+]([O-])/N=C1\NCCN1Cc1ccc(Cl)nc1 ?
0.0034
